Ref: patent US20080187490A1

Tested on: human C1q
Test: Reverse ELISA: inhibition of PAP immune complex binding to C1q coated plates
Conditions: PAP pre-incubated with peptide or C1q one hour, 30 min on C1q plates; lower OD = more inhibition; positive control 2.355
No end group written: not given here.
Examples of substances with documented OD 405 nm follow.
Quantity kind: OD 405 nm

INSERT INTO assay_data (substance, quantity_kind, result) VALUES
  ('Asp-Cys-Ala-Phe-His-Leu-Gly-Glu-Leu-Val-Trp-Cys-Thr (DCAFHLGELVWCT) [SEQ ID NO:3]', 'OD 405 nm', 0.859),
  ('Ala-Pro-Pro-Asp-Cys-Ala-Trp-His-Leu-Gly-Glu-Leu-Val-Trp-Cys-Thr (APPDCAWHLGELVWCT) [SEQ ID NO:16]', 'OD 405 nm', 0.389),
  ('APPCAWHLGELVWCT [SEQ ID NO:13]', 'OD 405 nm', 1.148),
  ('Asp-Cys-Ala-Trp-His-Leu-Gly-Glu-Leu-Val-Trp-Cys-Thr [SEQ ID NO:2]', 'OD 405 nm', 1.100),
  ('APPCAFHLGELVWCT (not fully specified; cysteine pairing not given here) [SEQ ID NO:15]', 'OD 405 nm', 0.983),
  ('APPCARHLGELVWCT [SEQ ID NO:14]', 'OD 405 nm', 0.567);
